B1: VH:VL chains; a variant is named by its letters at X, in order (parent)
chain 1: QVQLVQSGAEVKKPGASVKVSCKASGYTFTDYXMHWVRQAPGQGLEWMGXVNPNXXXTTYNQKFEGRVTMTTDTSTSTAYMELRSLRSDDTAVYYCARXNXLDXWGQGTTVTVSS
chain 2: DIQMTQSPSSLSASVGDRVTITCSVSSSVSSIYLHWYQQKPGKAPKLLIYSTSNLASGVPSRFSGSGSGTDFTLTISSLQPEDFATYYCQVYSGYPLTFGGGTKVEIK

- Variants of: B1
- method_description: yeast display scFab, FACS + sequencing
property_label: non-specific binding call

Below are worked cases with known answers.
mut: ATGRADGV
property_label: non-specific binding call
result: no binding

mut: YRRGGSAA
property_label: non-specific binding call
result: binds

mut: YRRGTSVD
property_label: non-specific binding call
result: binds

mut: FKGRGAAV
property_label: non-specific binding call
result: binds

mut: FAAGSSGS
property_label: non-specific binding call
result: binds

Quick batch: non-specific binding call for everything below.
1. VGGGAAGF
2. SRGRGSSS
3. VRKGGSVY

["no binding", "binds", "binds"]

I need non-specific binding call for every entry listed below, if you could help.
1. YAGRGDLD
2. YRGRTAAY
3. YKKGGSLA
4. FRGRDALY
5. YKAGGALY
6. VAATADSS
7. YRARGDLD

["no binding", "binds", "binds", "binds", "binds", "no binding", "binds"]

Required: non-specific binding call, one value per variant below.
1. VKARNDLV
2. VKGRSDSA
3. YRRGSASV
4. FKGEGDAA
5. YRRGGSGY
6. SKKRGASA
7. VTGTGDVV

1: no binding; 2: no binding; 3: binds; 4: no binding; 5: binds; 6: binds; 7: no binding
